Values compiled from PubChem BioAssay (NCI).

System: SK-MEL-5 melanoma
method.notes: NCI tumour cell line growth inhibition, 48 h; in the data active = GI50 below about 0.43 µM; inactive = the rest
Classes used: active, inactive

molecule: Cc1cc(Nc2nc(SCc3ccc(C(=O)Nc4ccc(F)cc4N)cc3)nn3cccc23)n[nH]1
target.of.assay: SK-MEL-5 melanoma
qualitative.label: active

molecule: O=c1c2c3c(sc2n2c(-c4cc(-c5ccccc5)nn4-c4ccccc4)nnc2n1Cc1ccccc1)CCCC3
target.of.assay: SK-MEL-5 melanoma
qualitative.label: inactive

molecule: NC(=O)C1(N2CCCCC2)CCN(CCCC(=O)c2ccc(F)cc2)CC1
target.of.assay: SK-MEL-5 melanoma
qualitative.label: active

molecule: C[C@H](Cn1ncnn1)Nc1ncc2cc(Oc3ccc(F)cc3F)c(=O)n(C)c2n1
target.of.assay: SK-MEL-5 melanoma
qualitative.label: inactive

molecule: O=C1c2cccnc2-c2nc(-c3ccncc3)cc3c2c1nc1ccccc13
target.of.assay: SK-MEL-5 melanoma
qualitative.label: inactive

molecule: Cn1cc(-c2csc(-c3cn(C)c4ccccc34)n2)c2cnccc21
target.of.assay: SK-MEL-5 melanoma
qualitative.label: inactive

molecule: OC(CN1CC1)C(O)CN1CC1 (stereo not given)
target.of.assay: SK-MEL-5 melanoma
qualitative.label: inactive

molecule: COc1cc2c(cc1-c1c(C)noc1C)cc(C)c(=O)n2Cc1ccccn1
target.of.assay: SK-MEL-5 melanoma
qualitative.label: inactive

molecule: C=C(CN1CCc2ccccc2C1)c1ccc(C(=O)Nc2ccccc2N)cc1
target.of.assay: SK-MEL-5 melanoma
qualitative.label: inactive

molecule: CC1(C)N=C(N)N=C(N)N1c1ccc(OCC(=O)Nc2ccccc2)c(Cl)c1
target.of.assay: SK-MEL-5 melanoma
qualitative.label: inactive

###

Test system: SF-539 CNS
method.notes: NCI tumour cell line growth inhibition, 48 h
Form field: TGI (one value per entry).

compound: N#C/C(=C\c1cc(Br)c(O)c(Br)c1)c1cccnc1
target.of.assay: SF-539 CNS
value.prefix: =
TGI / µM: 71.5
--
compound: Cc1cc(=O)c2c([nH]1)NS(=O)(=O)NC2=O
target.of.assay: SF-539 CNS
value.prefix: >
TGI / µM: 100
--
compound: O=S1(=O)NCCCN1CCNc1nccc(-c2c(-c3cccc(O)c3)nc3sccn23)n1
target.of.assay: SF-539 CNS
value.prefix: >
TGI / µM: 100
--
compound: CCC1=C[C@@H]2CN(C1)Cc1c([nH]c3ccccc13)[C@@](C(=O)OC)(c1cc3c(cc1OC)N(C)[C@H]1[C@@](O)(C(=O)OC)[C@H](OC(C)=O)[C@]4(CC)[C@@H]5C[C@@H]5CN5CC[C@]31[C@@H]54)C2
target.of.assay: SF-539 CNS
value.prefix: =
TGI / µM: 2.91
--
compound: O=c1cc(N=P(c2ccccc2)(c2ccccc2)c2ccccc2)n(-c2ccccc2)c(=O)n1-c1ccccc1
target.of.assay: SF-539 CNS
value.prefix: =
TGI / µM: 17.7
--
compound: CCOC(=O)NC(=S)NN(C)C1=NCC(C)(C)S1
target.of.assay: SF-539 CNS
value.prefix: >
TGI / µM: 100
--
compound: c1ccc2c(c1)NC(C1OC3CCCN3C1C1Nc3ccccc3S1)S2 (configuration not stated)
target.of.assay: SF-539 CNS
value.prefix: >
TGI / µM: 100
--
compound: NC(=O)C1(N2CCCCC2)CCN(CCCC(=O)c2ccc(F)cc2)CC1
target.of.assay: SF-539 CNS
value.prefix: =
TGI / µM: 13.6
--
compound: Cc1ccc2nc3c(Cl)c(C)c(=O)cc-3sc2c1
target.of.assay: SF-539 CNS
value.prefix: >
TGI / µM: 100
--
compound: CC(C)(C)NC(=O)/C(=C\Sc1ccccc1)c1ccc2c(c1)OCO2
target.of.assay: SF-539 CNS
value.prefix: >
TGI / µM: 100
--
compound: O=[N+]([O-])/C(C(Cl)=C(Cl)Cl)=C(\Nc1cccc2cccnc12)SCc1ccccc1
target.of.assay: SF-539 CNS
value.prefix: =
TGI / µM: 32.6
--
compound: O=C(c1cc2ccccc2cc1O)N1CCCCC1
target.of.assay: SF-539 CNS
value.prefix: >
TGI / µM: 100
--
compound: CCSc1nc(N)c2cn[nH]c2n1
target.of.assay: SF-539 CNS
value.prefix: >
TGI / µM: 100
--
compound: O=C(NCCCN(CCCCN(CCCNC(=O)C(F)(F)F)Cc1ccccc1)Cc1ccccc1)C(F)(F)F
target.of.assay: SF-539 CNS
value.prefix: =
TGI / µM: 26.3
--
compound: O=C(/C=C/c1ccccc1)CC(c1ccccc1)N1CCOCC1 (configuration not stated)
target.of.assay: SF-539 CNS
value.prefix: =
TGI / µM: 5.98
--
compound: CCOC(=O)c1ccc(N[C@@H]2c3cc4c(cc3C(C3=CC(=O)C(=O)C(OC)=C3)[C@H]3C(=O)OCC32)OCO4)cc1 (some centres not stated)
target.of.assay: SF-539 CNS
value.prefix: =
TGI / µM: 4.56
--
compound: OB1OCc2cc(/C=C/c3cccc(C(F)(F)F)c3)ccc21
target.of.assay: SF-539 CNS
value.prefix: =
TGI / µM: 11.1
--
compound: Cn1c2ccccc2c2c(=O)c3ccccc3[nH]c21
target.of.assay: SF-539 CNS
value.prefix: >
TGI / µM: 100
--
compound: Clc1ccc(-c2nn3c(-c4ccncc4)nnc3s2)cc1
target.of.assay: SF-539 CNS
value.prefix: >
TGI / µM: 100
--
compound: CC(O)C1CC1(CO)CNc1cc(Cl)nc(N)n1 (configuration not stated)
target.of.assay: SF-539 CNS
value.prefix: >
TGI / µM: 100
--
compound: O=S(=O)(CCOCc1ccc(-c2ccc3ncnc(Nc4ccc(OCc5cccc(F)c5)c(Cl)c4)c3c2)o1)c1ccccc1
target.of.assay: SF-539 CNS
value.prefix: >
TGI / µM: 25
--
compound: O=C1C[C@H](Sc2ccccc2)C2(OCCO2)[C@@H](Sc2ccccc2)C1
target.of.assay: SF-539 CNS
value.prefix: =
TGI / µM: 4.05
